test system: LNCaP-Clone-FGC (Prostate Carcinoma); assay: Bliss excess, mean over the matrix (fraction); higher = more synergy;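 note: after 72 h of two-drug dosing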
endpoint: Bliss excess

Please review the following examples before continuing.
>  <molecule>
CS(=O)(=O)CCNCc1ccc(-c2ccc3ncnc(Nc4ccc(OCc5cccc(F)c5)c(Cl)c4)c3c2)o1 [Lapatinib] + C[C@@H](Oc1cc(-c2cnn(C3CCNCC3)c2)cnc1N)c1c(Cl)ccc(F)c1Cl [Crizotinib] (first compound max 10 µM, 7x7, partner max 10 µM)

>  <value-reported>
-0.0575

$$$$
>  <molecule>
Cc1cc2ncnn2cc1Nc1ncc2c(n1)n(C1CCOCC1)c(=O)n2C [AZD7648] + CCN(CCO)CCCOc1ccc2c(Nc3cc(CC(=O)Nc4cccc(F)c4)[nH]n3)ncnc2c1 [AZD2811] (first compound max 10 µM, 7x7, partner max 1 µM)

>  <value-reported>
-0.003

$$$$
>  <molecule>
CC1(C)CCC(CN2CCN(c3ccc(C(=O)NS(=O)(=O)c4ccc(NCC5CCOCC5)c([N+](=O)[O-])c4)c(Oc4cnc5[nH]ccc5c4)c3)CC2)=C(c2ccc(Cl)cc2)C1 [Venetoclax] + Cn1cnc2c(F)c(Nc3ccc(Br)cc3Cl)c(C(=O)NOCCO)cc21 [Selumetinib] (first compound max 1 µM, 7x7, partner max 3 µM)

>  <value-reported>
-0.0459

$$$$

Lab note: need Bliss excess for CCN(CCO)CCCOc1ccc2c(Nc3cc(CC(=O)Nc4cccc(F)c4)[nH]n3)ncnc2c1 [AZD2811] + C=CCn1c(=O)c2cnc(Nc3ccc(N4CCN(C)CC4)cc3)nc2n1-c1cccc(C(C)(C)O)n1 [AZD1775] (first compound max 1 µM, partner max 1 µM) on LNCaP-Clone-FGC (Prostate Carcinoma), anyone have it?
0.0001

Lab note: need Bliss excess for COc1cccc(OCCCN)c1-c1cc(Nc2cnc(C#N)cn2)n[nH]1 [Prexasertib] + CN(C)CCCOc1ccc(-c2ccc3ncc4c(c3c2)n(C2CCOCC2)c(=O)n4C)cn1 [AZD0156] (first compound max 1 µM, 7x7, partner max 1 µM) on LNCaP-Clone-FGC (Prostate Carcinoma), anyone have it?
-0.0374

Lab note: need Bliss excess for CN(C)CCCOc1ccc(-c2ccc3ncc4c(c3c2)n(C2CCOCC2)c(=O)n4C)cn1 [AZD0156] + O=C(c1cc(Cc2n[nH]c(=O)c3ccccc23)ccc1F)N1CCN(C(=O)C2CC2)CC1 [Olaparib] (first compound max 3 µM, partner max 3 µM) on LNCaP-Clone-FGC (Prostate Carcinoma), anyone have it?
0.0755

Lab note: need Bliss excess for COc1cccc2c1C(=O)c1c(O)c3c(c(O)c1C2=O)C[C@@](O)(C(=O)CO)C[C@@H]3O[C@H]1C[C@H](N)[C@H](O)[C@H](C)O1 [Doxorubicin] + Cc1cc2ncnn2cc1Nc1ncc2c(n1)n(C1CCOCC1)c(=O)n2C [AZD7648] (first compound max 1 µM, 7x7, partner max 10 µM) on LNCaP-Clone-FGC (Prostate Carcinoma), anyone have it?
0.0417

Value source: the supplement of paper PMC11061612
